- assaySystem: human TMEM16A (Homo sapiens, UniProt Q5XXA6, DEL476-501)
- Sequence (Q5XXA6 with tags, fused parts or gaps isoform Q5XXA6-5 DEL539-564): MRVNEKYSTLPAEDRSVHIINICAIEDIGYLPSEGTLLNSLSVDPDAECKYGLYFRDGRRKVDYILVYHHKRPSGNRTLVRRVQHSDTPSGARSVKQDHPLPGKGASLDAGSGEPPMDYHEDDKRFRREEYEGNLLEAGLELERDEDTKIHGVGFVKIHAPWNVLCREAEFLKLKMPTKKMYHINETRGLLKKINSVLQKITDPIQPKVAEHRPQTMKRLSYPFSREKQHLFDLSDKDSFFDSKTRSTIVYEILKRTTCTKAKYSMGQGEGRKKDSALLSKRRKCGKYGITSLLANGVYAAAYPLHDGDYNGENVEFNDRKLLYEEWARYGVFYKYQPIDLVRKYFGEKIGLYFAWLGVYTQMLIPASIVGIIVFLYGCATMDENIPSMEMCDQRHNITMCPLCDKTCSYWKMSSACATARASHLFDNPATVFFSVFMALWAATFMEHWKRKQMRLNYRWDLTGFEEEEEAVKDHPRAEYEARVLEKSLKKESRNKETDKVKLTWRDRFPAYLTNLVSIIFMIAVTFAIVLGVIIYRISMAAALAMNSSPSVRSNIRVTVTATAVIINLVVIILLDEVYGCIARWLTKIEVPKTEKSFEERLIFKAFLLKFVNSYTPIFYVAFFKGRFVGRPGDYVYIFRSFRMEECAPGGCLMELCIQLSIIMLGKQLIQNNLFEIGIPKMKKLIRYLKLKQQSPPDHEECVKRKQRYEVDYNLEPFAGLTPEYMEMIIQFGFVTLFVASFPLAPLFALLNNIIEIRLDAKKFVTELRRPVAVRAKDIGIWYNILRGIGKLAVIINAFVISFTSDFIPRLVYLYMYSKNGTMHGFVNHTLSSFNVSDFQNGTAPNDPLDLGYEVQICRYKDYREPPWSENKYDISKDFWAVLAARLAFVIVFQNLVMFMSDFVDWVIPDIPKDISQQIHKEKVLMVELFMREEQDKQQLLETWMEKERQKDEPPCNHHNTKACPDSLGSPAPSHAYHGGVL
- testDescription: Short-circuit current assay in FRT-TMEM16A cells
- Type: cell-based
Let's look at some compounds and their measured IC50.

givenSmiles: Cc1nc(SCC(=O)Nc2nc(-c3cccs3)cs2)nc(O)c1C
assaySystem: human TMEM16A (Homo sapiens, UniProt Q5XXA6, DEL476-501)
assayReadout: IC50
testResult: ~3000 nM

// recorded IC50 for "CCc1c(C)nc(SCC(=O)Nc2nc(-c3cccs3)cs2)nc1O" : ~1000 nM

###

- assaySystem: human TMEM16A (Homo sapiens, UniProt Q5XXA6, DEL476-501)
- Sequence (Q5XXA6 with tags, fused parts or gaps isoform Q5XXA6-5 DEL539-564): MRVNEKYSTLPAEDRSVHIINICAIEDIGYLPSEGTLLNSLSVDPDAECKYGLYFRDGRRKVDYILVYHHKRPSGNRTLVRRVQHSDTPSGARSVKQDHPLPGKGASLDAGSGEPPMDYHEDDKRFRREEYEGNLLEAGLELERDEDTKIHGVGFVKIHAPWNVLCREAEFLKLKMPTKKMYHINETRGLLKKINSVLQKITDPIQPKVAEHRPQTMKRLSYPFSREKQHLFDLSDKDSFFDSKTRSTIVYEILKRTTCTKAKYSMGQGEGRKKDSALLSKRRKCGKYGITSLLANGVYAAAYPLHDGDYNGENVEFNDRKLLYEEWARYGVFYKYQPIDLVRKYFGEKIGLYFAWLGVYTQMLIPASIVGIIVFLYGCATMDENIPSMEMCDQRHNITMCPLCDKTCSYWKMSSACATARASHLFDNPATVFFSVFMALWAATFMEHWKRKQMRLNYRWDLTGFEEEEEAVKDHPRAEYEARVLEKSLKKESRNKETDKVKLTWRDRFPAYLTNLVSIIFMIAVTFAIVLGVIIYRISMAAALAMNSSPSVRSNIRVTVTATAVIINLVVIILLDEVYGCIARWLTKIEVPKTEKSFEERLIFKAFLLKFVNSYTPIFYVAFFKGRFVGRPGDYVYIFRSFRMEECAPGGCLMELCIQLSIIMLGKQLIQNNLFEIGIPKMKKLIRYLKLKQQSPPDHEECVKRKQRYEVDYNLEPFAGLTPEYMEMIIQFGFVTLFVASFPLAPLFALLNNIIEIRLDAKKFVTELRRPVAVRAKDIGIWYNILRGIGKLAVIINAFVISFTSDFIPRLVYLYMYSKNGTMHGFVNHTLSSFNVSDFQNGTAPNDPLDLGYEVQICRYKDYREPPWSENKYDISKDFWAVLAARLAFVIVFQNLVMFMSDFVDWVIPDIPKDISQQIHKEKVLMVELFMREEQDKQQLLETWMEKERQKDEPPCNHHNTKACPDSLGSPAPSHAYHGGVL
- testDescription: TMEM16A functional assay
- Format: cell-based
assayReadout: IC50 (µM)

givenSmiles: CCc1c(C)nc(SCC(=O)Nc2nc(-c3cccs3)cs2)nc1O
IC50 [µM]: 3.5

P. Cc1nc(SCC(=O)Nc2nc(-c3cccs3)cs2)nc(O)c1C
Q. Cc1c(O)nc(SCC(=O)Nc2nc(-c3ccccc3)cs2)nc1C(F)(F)F
Which entry shows the lesser value of IC50 here, P or Q ? Answer format: the label of the selected item.
P
(P: 2.9 µM, Q: 6.2 µM)
